System: SK-MEL-5 melanoma
Assay: NCI-60 one-dose screen, 48 h (100 = growth as untreated, 0 = no growth, -100 = all killed)
Conditions: 10 µM unless noted
This is part of a sample that, as a whole, favours compounds with a hit. Of some 83,000 tested, about 20% had one in any assay.
Rule: yes for growth not less than 60%, no for anything less.

>>> df
                                    compound  group_label
 0  COc1ccc(C2CC(c3ccc(Nc4ccnc5cc(Cl)ccc45)cc3)=NN2c2ccccc2)cc1 (configuration not stated)          yes
 1  CSCCC1NC(=O)C(C(C)=Nc2ccccc2)=C1O (configuration not stated)          yes
 2  O=C1c2ccccc2C2N1CCC1CCc3ccccc3N12 (configuration not stated)          yes
 3  COc1ccc2[nH]c(O)c(/C=c3/ccc4c(c3)N=C(c3ccc(C(F)(F)F)cc3)N=4)c2c1          yes
 4  CSC1=NC(=Nc2c(C)cccc2C)C2(CCC(C(C)(C)C)CC2)N1c1ccc(Cl)cc1 (configuration not stated)           no
 5     COc1cc2cc(C(=O)Nc3ccccc3)c(N)nc2cc1OC           no
 6                      NC(N)=N/N=C/c1ccccc1          yes
 7  Cc1ccc2oc(=O)cc(-c3nc4ccc([N+](=O)[O-])cc4[nH]3)c2c1           no
 8  CCN(CC)CCCC(C)Nc1cnc(C(=O)Nc2cc(C)cc3cccnc23)cn1 (configuration not stated)          yes
 9   Cc1cc(C)c2c(n1)sc1c(Nc3ccc(O)cc3)ncnc12           no
10   COS(=O)(=O)CCN(CCOS(C)(=O)=O)S(C)(=O)=O          yes
11  CCCCn1c(C)nc2ccc(Nc3nc(Cl)nc4nc[nH]c34)cc21          yes
12  O=C(NCCNC(=O)c1cc(S(=O)(=O)NCCc2ccccc2)c(O)c(O)c1O)c1cc(S(=O)(=O)NCCc2ccccc2)c(O)c(O)c1O           no
13  CCC1CCc2nc3sc(C(=O)Nc4cccc(F)c4)c(N)c3cc2C1 (configuration not stated)           no
14           O=C(Nc1ccccc1Cl)Oc1ccc2ccccc2c1          yes
15  FC1(F)CCN(Cc2c[nH]c3cc(Cl)ccc23)C[C@H]1CCc1ccccc1          yes
16   CC(C)=CCC[C@H](C)c1ccc(C)c2c1OCN(CCO)C2          yes
17                   Cc1ccc(O)c(Cc2ccccc2)c1          yes
18          NC(N)=N/N=C\c1ccc(OCc2ccccc2)cc1           no
19  COC(=O)c1cc2oc(/C=N/NC(=O)c3cc4oc(-c5cccc(C(F)(F)F)c5)cc4[nH]3)cc2n1Cc1ccccc1          yes
20       CCOC(=O)c1ccc(N(CCC(=O)O)C(C)=O)cc1          yes
21  COc1cc(Cn2c(-c3ccccc3)cc3c2-c2oncc2CC3)cc(OC)c1OC           no
